// reported HepSE_Combined Scores for each item listed
System: Hepatotoxicity
COND: Liver
MEASURE NAME: HepSE_Combined Scores

{"columns": ["MOLECULE", "ASSAYED SYSTEM", "MEASURE NAME", "VAL"],
 "data": [
  ["CC(C)(C)NC(=O)[C@@H]1C[C@@H]2CCCC[C@@H]2CN1C[C@@H](O)[C@H](Cc1ccccc1)NC(=O)[C@H](CC(N)=O)NC(=O)c1ccc2ccccc2n1", "Hepatotoxicity", "HepSE_Combined Scores", 7],
  ["CN1[C@@H]2CC[C@H]1C[C@@H](OC(=O)C(CO)c1ccccc1)C2 (some centres undefined) [ATROPINE]", "Hepatotoxicity", "HepSE_Combined Scores", 0],
  ["CN(C)CCOC(c1ccccc1)c1ccccc1 [DIPHENHYDRAMINE]", "Hepatotoxicity", "HepSE_Combined Scores", 0],
  ["CN[C@H]1CC[C@@H](c2ccc(Cl)c(Cl)c2)c2ccccc21 [SERTRALINE]", "Hepatotoxicity", "HepSE_Combined Scores", 4],
  ["CCN(CC)CC(=O)Nc1c(C)cccc1C [LIDOCAINE]", "Hepatotoxicity", "HepSE_Combined Scores", 0],
  ["CNC[C@H](O)c1ccc(O)c(O)c1 [EPINEPHRINE]", "Hepatotoxicity", "HepSE_Combined Scores", 0],
  ["CN1[C@@H]2C[C@@H](OC(=O)[C@H](CO)c3ccccc3)C[C@H]1[C@@H]1O[C@@H]12 [SCOPOLAMINE]", "Hepatotoxicity", "HepSE_Combined Scores", 0],
  ["O=C(O)COCCN1CCN(C(c2ccccc2)c2ccc(Cl)cc2)CC1 (centres undefined) [CETIRIZINE]", "Hepatotoxicity", "HepSE_Combined Scores", 2],
  ["COC(=O)[C@H](c1ccccc1Cl)N1CCc2sccc2C1 [CLOPIDOGREL]", "Hepatotoxicity", "HepSE_Combined Scores", 4]
]}

---

Assay read-out HepSE_liver function tests abnormal; system under study: Hepatotoxicity.

{"columns": ["COMPOUND", "HepSE_liver function tests abnormal"],
 "data": [
  ["CCOC(=O)C1(c2ccccc2)CCN(C)CC1", 0],
  ["NCC(CC(=O)O)c1ccc(Cl)cc1 (stereo not given)", 0],
  ["O=c1[nH]c2ccccc2n1CCCN1CCC(n2c(=O)[nH]c3cc(Cl)ccc32)CC1", 0],
  ["O=P(O)(O)C(Sc1ccc(Cl)cc1)P(=O)(O)O", 0],
  ["O=C1C(O)=C([C@H]2CC[C@H](c3ccc(Cl)cc3)CC2)C(=O)c2ccccc21", 0]
]}

---

*1 amine or outer side, *2 acyl side, *3 side chain or, on linkers, in order; H or OH if unused. Where a SMILES comes first, the peptide text is derived from it. Bridges are numbered along the chain shown (N, C = ends). Roman numbers before positions name the chains, in order. [ ]: non-standard residue; d: D form. Actinocin(9to1) = Cc1c2oc3c(C)ccc(C(=O)[*:1])c3nc-2c(C(=O)[*:2])c(N)c1=O; NMeV = CN[C@H](C(=O)O)C(C)C; Sar = CNCC(=O)O
Assay read-out HepSE_Combined Scores; system under study: Hepatotoxicity.
MEASURE NAME: HepSE_Combined Scores

{"columns": ["COMPOUND", "ASSAYED SYSTEM", "MEASURE NAME", "VAL"],
 "data": [
  ["CS(=O)(=O)OCCCCOS(C)(=O)=O [BUSULFAN]", "Hepatotoxicity", "HepSE_Combined Scores", 4],
  ["O=P(O)(O)C(Sc1ccc(Cl)cc1)P(=O)(O)O [TILUDRONIC ACID]", "Hepatotoxicity", "HepSE_Combined Scores", 0],
  ["COc1nc(N)nc2c1ncn2[C@@H]1O[C@H](CO)[C@@H](O)[C@@H]1O [NELARABINE]", "Hepatotoxicity", "HepSE_Combined Scores", 0],
  ["Cc1c2oc3c(C)ccc(C(=O)N[C@@H]4C(=O)N[C@H](C(C)C)C(=O)N5CCC[C@H]5C(=O)N(C)CC(=O)N(C)[C@@H](C(C)C)C(=O)O[C@@H]4C)c3nc-2c(C(=O)N[C@@H]2C(=O)N[C@H](C(C)C)C(=O)N3CCC[C@H]3C(=O)N(C)CC(=O)N(C)[C@@H](C(C)C)C(=O)O[C@@H]2C)c(N)c1=O [DACTINOMYCIN] (I: T[dV]P[Sar][NMeV] / II: T[dV]P[Sar][NMeV]; ester I:1-I:C, II:1-II:C; linker I:N-II:N via Actinocin(9to1))", "Hepatotoxicity", "HepSE_Combined Scores", 1],
  ["C[C@H]1[C@H](NC(=O)/C(=N\\OC(C)(C)C(=O)O)c2csc(N)n2)C(=O)N1S(=O)(=O)O [AZTREONAM]", "Hepatotoxicity", "HepSE_Combined Scores", 2],
  ["COCCCC/C(=N\\OCCN)c1ccc(C(F)(F)F)cc1 [FLUVOXAMINE]", "Hepatotoxicity", "HepSE_Combined Scores", 5]
]}
